assay: reversal of MRP1-mediated doxorubicin resistance, pilot screen, H69AR cells, doxorubicin co-treatment (AID 601); details: H69AR cells + 2 uM doxorubicin, CellTiter-Glo, 72 h; measured here: viability with 2 uM doxorubicin; at 10 µM; stronger effect = lower value
METRIC_NAME: viability (%)
Response body: numeric value in %, unit text excluded.

A selection of reference data follows.
- Cc1onc(-c2c(Cl)cccc2Cl)c1C(N)=O: 92.5
- Cc1ccc(-c2csc3nnc(SCC(=O)NCc4ccco4)n23)cc1: 83.6

Note: attention shifts to another entry.
Write down viability measured for item `CCN(Cc1nc2ccccc2c(=O)[nH]1)Cc1cc(=O)oc2cc(C)c(C)cc12`
42

----------
biological target: Receptor tyrosine-protein kinase erbB-2 (Homo sapiens); test: reducers of endogenous Her2 protein level, primary screen, SKBR3 breast tumor cells, AlphaScreen, ATP viability (AID 461); conditions: 18-24 h, at 10 µM, stronger effect = lower value;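 also: lower value means less Her2 protein in the cells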
METRIC_NAME: Her2 level (%)
Response body: numeric value in %, unit text excluded.

A selection of reference data follows.
• COCCSc1nnc(NC(=O)Cc2ccccc2OC)s1 = 76
• O=C(NCCCN1CCCC1=O)c1ccc2c(c1)NC(=O)C(N1CCOCC1)S2 (configuration not stated) = 94.5
• Cc1nnc(NC(=O)Nc2cccc(Cl)c2)s1 = 89.5
• COc1cccc(NC(=O)NC2(C(F)(F)F)Oc3ccccc3O2)c1 = 98
• CCS(=O)(=O)NCCc1cc2c(OC)ccc(OC)c2[nH]c1=O = 88.5
• CCCCOc1ccc(-c2nnn(CC(=O)Nc3ncc(CC(=O)OCC)s3)n2)cc1 = 100
• C=CCn1c(COc2ccccc2)nnc1SCC(=O)C(C)(C)C = 107
• CCCCOC(=O)n1c(SCC(=O)N(CC)CC)nc2ccccc21 = 97.5

Note: attention shifts to another entry.
# return Her2 level for CCOC(=O)C1CCCN(C/C(O)=C(\C#N)c2nc(-c3ccc(Cl)cc3)cs2)C1 (configuration not stated) , test system: Receptor tyrosine-protein kinase erbB-2 (Homo sapiens)
101

----------
experiment: reversal of MRP1-mediated doxorubicin resistance, pilot screen, H69AR cells, doxorubicin co-treatment (AID 601); conditions: H69AR cells + 2 uM doxorubicin, CellTiter-Glo, 72 h; at 10 µM; stronger effect = higher value
METRIC_NAME: differential viability (reversal) (%)
Response body: numeric value in %, unit text excluded.

A selection of reference data follows.
- CN1C(=O)C(CC(=O)N2CCN(C(c3ccccc3)c3ccccc3)CC2)N(C)C1=O (stereo not drawn): -14
- O=C(c1ccccc1F)N1CCN(Cc2cccc(Cl)c2)CC1: 16.8

Note: attention shifts to another entry.
Write down differential viability (reversal) measured for item COCCNC(=O)CC(NS(=O)(=O)c1ccc(NC(C)=O)cc1)C(C)C (stereo not drawn)
11.4

----------
molecular target: Receptor tyrosine-protein kinase erbB-2 (Homo sapiens) (UniProt P04626); test: reducers of endogenous Her2 protein level, primary screen, SKBR3 breast tumor cells, AlphaScreen, ATP viability (AID 461); settings: 18-24 h, at 10 µM, stronger effect = lower value;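 also: lower value means less Her2 protein in the cells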
Sequence (P04626 whole entry, looked up): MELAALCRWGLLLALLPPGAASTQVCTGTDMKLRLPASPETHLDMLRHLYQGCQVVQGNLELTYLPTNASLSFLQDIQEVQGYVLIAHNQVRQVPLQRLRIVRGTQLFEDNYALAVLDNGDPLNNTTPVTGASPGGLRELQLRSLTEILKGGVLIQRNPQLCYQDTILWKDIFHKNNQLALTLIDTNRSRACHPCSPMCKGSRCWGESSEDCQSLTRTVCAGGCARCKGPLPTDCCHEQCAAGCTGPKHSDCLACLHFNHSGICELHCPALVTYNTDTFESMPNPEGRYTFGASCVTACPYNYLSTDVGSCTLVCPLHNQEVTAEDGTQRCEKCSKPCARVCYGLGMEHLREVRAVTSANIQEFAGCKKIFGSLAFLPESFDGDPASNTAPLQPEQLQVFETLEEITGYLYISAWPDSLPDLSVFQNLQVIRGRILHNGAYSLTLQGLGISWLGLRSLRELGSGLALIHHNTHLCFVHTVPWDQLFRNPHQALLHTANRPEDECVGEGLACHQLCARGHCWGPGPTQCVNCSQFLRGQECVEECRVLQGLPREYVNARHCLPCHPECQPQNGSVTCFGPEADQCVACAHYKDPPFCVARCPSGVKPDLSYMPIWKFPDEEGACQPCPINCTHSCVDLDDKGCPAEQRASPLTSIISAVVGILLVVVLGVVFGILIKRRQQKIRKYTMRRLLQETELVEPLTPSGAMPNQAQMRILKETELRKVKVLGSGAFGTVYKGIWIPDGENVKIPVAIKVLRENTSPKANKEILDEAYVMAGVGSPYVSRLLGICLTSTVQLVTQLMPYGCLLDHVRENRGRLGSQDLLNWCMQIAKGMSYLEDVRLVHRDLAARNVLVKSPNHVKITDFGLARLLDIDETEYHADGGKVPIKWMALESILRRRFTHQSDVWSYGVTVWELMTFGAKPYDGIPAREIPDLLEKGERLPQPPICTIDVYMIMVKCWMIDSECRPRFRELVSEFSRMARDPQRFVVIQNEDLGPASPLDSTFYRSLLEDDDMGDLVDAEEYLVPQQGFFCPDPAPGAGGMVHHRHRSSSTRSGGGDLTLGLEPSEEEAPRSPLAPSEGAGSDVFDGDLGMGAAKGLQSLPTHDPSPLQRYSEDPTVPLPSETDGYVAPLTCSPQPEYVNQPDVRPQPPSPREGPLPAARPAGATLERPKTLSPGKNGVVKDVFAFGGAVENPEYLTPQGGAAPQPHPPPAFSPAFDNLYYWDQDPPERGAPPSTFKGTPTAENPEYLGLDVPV
List of Her2 level values.
Response body: numeric value in %, unit text excluded.

A selection of reference data follows.
- Cc1ccc(O)c(NC(=O)COc2cc(C)ccc2C)c1: 89.5
- O=C(Cn1nc(C(F)(F)F)c2c1CCCC2)NCCN1CCOCC1: 89

Write down Her2 level measured for item `COC(=O)c1[nH]c2cccc(C)c2c1NC(=O)CN1CCCc2ccccc21`
92

Write down Her2 level measured for item `Cc1cc(C)nc(NC(=O)c2ccc(OC(C)C)cc2)n1`
90

----------
test: SK-BR-3 cell growth inhibitors, pilot screen, 24 h, human (AID 572); conditions: SK-BR-3 viability, CellTiter-Glo luminescence, at 10 µM, stronger effect = lower value;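 also: compound exposure lasted between 18 and 24 h rather than exactly 24 h; 100% = carrier-treated control wells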
List of viability values.
Response body: numeric value in %, unit text excluded.

A selection of reference data follows.
* Fc1cc(F)c(F)c(SCCc2ccncc2)c1F | 97
* CN1C(=O)CCC1(O)c1ccccc1 (stereo not drawn) | 89
* COc1cccc(-n2nc(C(=O)Nc3ccc4c(c3)OCO4)c3ccccc3c2=O)c1 | 109

Write down viability measured for item `CN(C)c1ccc(NC(=O)CSCc2nc3c(nnn3Cc3ccc(F)cc3)c(=O)[nH]2)cc1`
89.5

Write down viability measured for item O=C(Cn1cnc2c(nnn2Cc2ccc(Cl)cc2)c1=O)NCC1CCCO1 (stereo not drawn)
120

Write down viability measured for item `Cc1ccc(S(=O)(=O)Nc2cc(C(=O)O)ccc2N2CCCCC2)cc1`
112

Write down viability measured for item `CCNc1nc(N2CCCCC2)nc(-n2nnc(C(=O)OCC)c2C)n1`
162

Write down viability measured for item `COc1ccc(OC)c(NC(=O)C2CCN(c3cc(-c4ccccc4)nc4ncnn34)CC2)c1`
95.5

Write down viability measured for item `C=CCOc1nc(N2CCCC2)nc(N2CCCC2)n1`
89

Write down viability measured for item CCOC(=O)C1CCCN(c2cc(=O)n(Cc3ccc(F)cc3)c(=O)[nH]2)C1 (stereo not drawn)
92

Write down viability measured for item `Cc1nnc(SCc2cc(=O)[nH]c(N3CCCCC3)n2)s1`
94

----------
test: SK-BR-3 cell growth inhibitors, pilot screen, 24 h, human (AID 572); settings: SK-BR-3 viability, CellTiter-Glo luminescence, at 10 µM, stronger effect = lower value;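 also: compound exposure lasted between 18 and 24 h rather than exactly 24 h; 100% = carrier-treated control wells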
List of viability values.
Response body: numeric value in %, unit text excluded.

Write down viability measured for item `COc1ccc2c(c1)CCc1c(C(=O)N3CCCc4ccccc43)noc1-2`
98

Write down viability measured for item `COc1cc(OC)c(-c2nn3c(C4CCCCC4)nnc3s2)cc1OC`
102

Write down viability measured for item `CCCCP(=O)(CCCC)c1ccccc1C(=O)O`
110

----------
test: reversal of MRP1-mediated doxorubicin resistance, pilot screen, H69AR cells, doxorubicin co-treatment (AID 601); settings: H69AR cells + 2 uM doxorubicin, CellTiter-Glo, 72 h; measured here: viability with 2 uM doxorubicin; at 10 µM; stronger effect = lower value
METRIC_NAME: viability (%)
Response body: numeric value in %, unit text excluded.

A selection of reference data follows.
• CCn1c(SCC(=O)Nc2nnc(C)s2)nnc1-c1ccncc1 = 91.4
• CC(NCc1ccco1)C(=O)N1CCc2ccccc2C1 (stereo unspecified) = 87.4
• COC(=O)c1cn(C(=O)OC)c2ccccc12 = 88.3
• O=C(Nc1ccc(S(=O)(=O)NC2CCCC2)cc1)c1cnccn1 = 91.2
• CSc1nnc(-c2ccc(NC(=O)CCc3ccccc3)cc2)n1C = 89.5

Write down viability measured for item `C/C=C/c1ccc(OCCn2cncn2)c(OC)c1`
88.7

Write down viability measured for item `O=S(=O)(c1ccc(F)c(Cl)c1)N1CCCC1`
89.2

Write down viability measured for item `O=C(O)c1cc2nc(-c3ccc(F)cc3)cc(C(F)(F)F)n2n1`
89.2

Write down viability measured for item `CC(C)c1nnc(NC(=O)c2cnccn2)s1`
92.3

Write down viability measured for item `CC(C)CCNc1cc(=O)n(C)c(=O)n1C`
88.6

Write down viability measured for item `O=C(O)Cn1cc(C(=O)c2ccco2)c2ccccc21`
90.3

----------
List of viability values.
assay: reversal of MRP1-mediated doxorubicin resistance, pilot screen, H69AR cells, doxorubicin co-treatment (AID 601); conditions: H69AR cells, CellTiter-Glo, 72 h; compound alone cytotoxicity; at 10 µM
Response body: numeric value in %, unit text excluded.

A selection of reference data follows.
* Cc1cc(C)c2nc(N)sc2c1 | 103
* O=C(NCc1ccc2c(c1)OCO2)C1CCCN(S(=O)(=O)c2cccnc2)C1 (stereo not given) | 92.4

Write down viability measured for item `O=C(CSc1nnc(-c2cccnc2)o1)Nc1ccccn1`
94.4

Write down viability measured for item `COc1ccccc1C(=O)Nc1ccc(S(=O)(=O)N2CCOCC2)cc1`
93.2

Write down viability measured for item `CN1CCN(c2oc(COc3ccc(-c4ccccc4)cc3)nc2C#N)CC1`
78.3

Write down viability measured for item `O=C(O)c1[nH]c2ccc(Cl)cc2c1CC(=O)N1CCN(C(=O)c2ccco2)CC1`
95.8

Write down viability measured for item `Nc1ncnc(Nc2ccccc2C(F)(F)F)n1`
95.6

----------
assay: growth inhibitors of H69AR lung tumor, primary screen, human, duplicate replicates (AID 580); conditions: H69AR lung tumor cells viability, ATP luminescence, 72 h; at 10 µM; stronger effect = lower value;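 also: 100% = mean luminescence of untreated wells and 0% = no signal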
Mark y only for viability values smaller than 90%; exact matches and larger values are n.

The following compounds have reported results that may help.
- O=C(NCc1ccco1)c1csc(Nc2ccccc2Cl)n1: y
- CCOCCCNC(=O)CCNS(=O)(=O)c1ccc(C)cc1: n
- N#CCSc1nc(-c2ccccc2)cs1: n

Identify whether the compound `COc1cc(Cn2c(C(=O)O)cc3sccc32)cc(OC)c1OC` records viability below 90%.
n

Identify whether the compound `COc1ccc(C)cc1NS(=O)(=O)c1ccc(NS(=O)(=O)c2ccc(NC(C)=O)cc2)cc1` records viability below 90%.
n

Identify whether the compound `C=CCc1cccc2cc(C(=O)NCc3cccnc3)c(=O)oc12` records viability below 90%.
n

Identify whether the compound `c1csc(-c2nc3nc4ccccc4nc3n2Cc2ccc3c(c2)OCO3)c1` records viability below 90%.
y

Value source: PubChem BioAssay
